# RUN_DESCRIPTION: anti-His antibody binders, primary screen, artefact control for SMM control protein annotation, biochemical, small-molecule microarray, 635 nm fluorescence (AID 1128);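 further: score merges feature fluorescence with signal-to-noise for each printed compound spot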
# ASSAY_CONTEXT: anti-His Alexa647 antibody binding, higher = more signal
composite z-score for assorted molecules
EXPERIMENTAL_READOUT: composite z-score

> print(dat)
                                   molecule  experimental.readout  recorded.result
1  COC(=O)C1=CC(c2ccc(CO)cc2)=CC(C2CC2)N(C)C=C1C(=O)OC (stereo not drawn)     composite z-score            0.822
2  CO[C@H]1O[C@H](CO)[C@@H](OC(=O)CCc2ccccc2)[C@@H]2OC(=O)[C@H](Cc3ccccc3)C/C=C/C[C@@H](Cc3ccccc3)C(=O)O[C@@H]12     composite z-score            -0.13
3  CC(C)C(CO)N1C(=O)[C@@H]2C3C(=O)OCCC/C=C\[C@H]3OC23C=CCN(C(C)C)C(=O)[C@@H]13 (stereo partly drawn)     composite z-score            -1.74
